Tested on: HEK293T
Assay: Specificity: mammalian cell cytotoxicity / inhibition of bacteria growth (CC50/IC50)
Conditions: IC50 vs A. baumannii ATCC 17978; RPMI + 50% serum
measured_quantity: Specificity HEK293T (CC50/IC50)

>>> numeric_value("CO[C@H]1/C=C/O[C@@]2(C)Oc3c(C)c(O)c4c(O)c(c(/C=N/N5CCN(C6CCCC6)CC5)c(O)c4c3C2=O)NC(=O)/C(C)=C\\C=C\\[C@H](C)[C@H](O)[C@@H](C)[C@@H](O)[C@@H](C)[C@H](OC(C)=O)[C@@H]1C")
1.222
>>> numeric_value("CO[C@H]1/C=C/O[C@@]2(C)Oc3c(C)c(O)c4c(O)c(c(/C=N/N=C/N5CCCCC5)c(O)c4c3C2=O)NC(=O)/C(C)=C\\C=C\\[C@H](C)[C@H](O)[C@@H](C)[C@@H](O)[C@@H](C)[C@H](OC(C)=O)[C@@H]1C")
0.950
>>> numeric_value("CO[C@H]1/C=C/O[C@@]2(C)Oc3c(C)c(O)c4c(O)c(c(/C=N/N5CCN(C)CC5)c(O)c4c3C2=O)NC(=O)/C(C)=C\\C=C\\[C@H](C)[C@H](O)[C@@H](C)[C@@H](O)[C@@H](C)[C@H](OC(C)=O)[C@@H]1C")
2.741
>>> numeric_value("CO[C@H]1/C=C/O[C@@]2(C)Oc3c(C)c(O)c4c(O)c(c5c(nc6cc(C)ccn65)c4c3C2=O)NC(=O)/C(C)=C\\C=C\\[C@H](C)[C@H](O)[C@@H](C)[C@@H](O)[C@@H](C)[C@H](OC(C)=O)[C@@H]1C")
20.421

---

Items are presented alongside their recorded Specificity HEK293T (CC50/IC50).
Tested on: HEK293T
Experiment: Specificity: mammalian cell cytotoxicity / inhibition of bacteria growth (CC50/IC50)
Conditions: IC50 vs A. baumannii ATCC 17978; RPMI alone
measured_quantity: Specificity HEK293T (CC50/IC50)

>>> numeric_value("CO[C@H]1/C=C/O[C@@]2(C)Oc3c(C)c(O)c4c(O)c(c(/C=N/N5CCN(C)CC5)c(O)c4c3C2=O)NC(=O)/C(C)=C\\C=C\\[C@H](C)[C@H](O)[C@@H](C)[C@@H](O)[C@@H](C)[C@H](OC(C)=O)[C@@H]1C")
3.621
>>> numeric_value("CO[C@H]1/C=C/O[C@@]2(C)Oc3c(C)c(O)c4c(O)c(c(/C=N/N5CCN(C6CCCC6)CC5)c(O)c4c3C2=O)NC(=O)/C(C)=C\\C=C\\[C@H](C)[C@H](O)[C@@H](C)[C@@H](O)[C@@H](C)[C@H](OC(C)=O)[C@@H]1C")
4.517
>>> numeric_value("CO[C@H]1/C=C/O[C@@]2(C)Oc3c(C)c(O)c4c(c3C2=O)C2=NC3(CCN(CC(C)C)CC3)NC2=C(NC(=O)/C(C)=C\\C=C\\[C@H](C)[C@H](O)[C@@H](C)[C@@H](O)[C@@H](C)[C@H](OC(C)=O)[C@@H]1C)C4=O")
1961.478
>>> numeric_value("CO[C@H]1/C=C/O[C@@]2(C)Oc3c(C)c(O)c4c(=O)c(c5oc6cc(N7CCN(CC(C)C)CC7)cc(O)c6nc-5c4c3C2=O)NC(=O)/C(C)=C\\C=C\\[C@H](C)[C@H](O)[C@@H](C)[C@@H](O)[C@@H](C)[C@H](OC(C)=O)[C@@H]1C")
1.752

---

Test system: A. baumannii HUMC1
Assay: IC50 dose response, inhibition of bacterial growth (BacTiter-Glo viability)
Assay type: cell-based, Acinetobacter baumannii
Conditions: Acinetobacter baumannii, HUMC1, 24 h, HUMC1; RPMI + 50% Serum; 11-point dose response; read-out: IC50
measured_quantity: IC50 (µM)

>>> numeric_value("CO[C@H]1/C=C/O[C@@]2(C)Oc3c(C)c(O)c4c(O)c(c(/C=N/N5CCN(C)CC5)c(O)c4c3C2=O)NC(=O)/C(C)=C\\C=C\\[C@H](C)[C@H](O)[C@@H](C)[C@@H](O)[C@@H](C)[C@H](OC(C)=O)[C@@H]1C")
7.99
>>> numeric_value("CO[C@H]1/C=C/O[C@@]2(C)Oc3c(C)c(O)c4c(=O)c(c5oc6cc(N7CCN(CC(C)C)CC7)cc(O)c6nc-5c4c3C2=O)NC(=O)/C(C)=C\\C=C\\[C@H](C)[C@H](O)[C@@H](C)[C@@H](O)[C@@H](C)[C@H](OC(C)=O)[C@@H]1C")
7.51
>>> numeric_value("CO[C@H]1/C=C/O[C@@]2(C)Oc3c(C)c(O)c4c(O)c(c(/C=N/N5CCN(C6CCCC6)CC5)c(O)c4c3C2=O)NC(=O)/C(C)=C\\C=C\\[C@H](C)[C@H](O)[C@@H](C)[C@@H](O)[C@@H](C)[C@H](OC(C)=O)[C@@H]1C")
10.9
>>> numeric_value("CO[C@H]1/C=C/O[C@@]2(C)Oc3c(C)c(O)c4c(O)c(cc(O)c4c3C2=O)NC(=O)/C(C)=C\\C=C\\[C@H](C)[C@H](O)[C@@H](C)[C@@H](O)[C@@H](C)[C@H](OC(C)=O)[C@@H]1C")
35.4
>>> numeric_value("CO[C@H]1/C=C/O[C@@]2(C)Oc3c(C)c(O)c4c(O)c(c5c(nc6cc(C)ccn65)c4c3C2=O)NC(=O)/C(C)=C\\C=C\\[C@H](C)[C@H](O)[C@@H](C)[C@@H](O)[C@@H](C)[C@H](OC(C)=O)[C@@H]1C")
1.59

---

Items are presented alongside their recorded Specificity HEK293T (CC50/IC50).
System: HEK293T
Assay: Specificity: mammalian cell cytotoxicity / inhibition of bacteria growth (CC50/IC50)
Conditions: IC50 vs A. baumannii ATCC 17978; RPMI alone
measured_quantity: Specificity HEK293T (CC50/IC50)

>>> result("CO[C@H]1/C=C/O[C@@]2(C)Oc3c(C)c(O)c4c(O)c(c(/C=N/N=C/N5CCCCC5)c(O)c4c3C2=O)NC(=O)/C(C)=C\\C=C\\[C@H](C)[C@H](O)[C@@H](C)[C@@H](O)[C@@H](C)[C@H](OC(C)=O)[C@@H]1C")
3.441
>>> result("CO[C@H]1/C=C/O[C@@]2(C)Oc3c(C)c([O-])c4c(O)c(cc(O)c4c3C2=O)NC(=O)/C(C)=C\\C=C\\[C@H](C)[C@H](O)[C@@H](C)[C@@H](O)[C@@H](C)[C@H](OC(C)=O)[C@@H]1C.[Na+]")
1.108
>>> result("CO[C@H]1/C=C/O[C@@]2(C)Oc3c(C)c(O)c4c(O)c(cc(O)c4c3C2=O)NC(=O)/C(C)=C\\C=C\\[C@H](C)[C@H](O)[C@@H](C)[C@@H](O)[C@@H](C)[C@H](OC(C)=O)[C@@H]1C")
0.478
>>> result("CO[C@H]1/C=C/O[C@@]2(C)Oc3c(C)c(O)c4c(O)c(c5c(nc6cc(C)ccn65)c4c3C2=O)NC(=O)/C(C)=C\\C=C\\[C@H](C)[C@H](O)[C@@H](C)[C@@H](O)[C@@H](C)[C@H](OC(C)=O)[C@@H]1C")
28.143

---

Items are presented alongside their recorded Specificity HEK293T (CC50/IC50).
Test system: HEK293T
Test: Specificity: mammalian cell cytotoxicity / inhibition of bacteria growth (CC50/IC50)
Settings: IC50 vs A. baumannii ATCC 17978; RPMI + 50% serum
measured_quantity: Specificity HEK293T (CC50/IC50)

>>> numeric_value("CO[C@H]1/C=C/O[C@@]2(C)Oc3c(C)c(O)c4c(O)c(cc(O)c4c3C2=O)NC(=O)/C(C)=C\\C=C\\[C@H](C)[C@H](O)[C@@H](C)[C@@H](O)[C@@H](C)[C@H](OC(C)=O)[C@@H]1C [rifamycin]")
0.412
>>> numeric_value("CO[C@H]1/C=C/O[C@@]2(C)Oc3c(C)c([O-])c4c(O)c(cc(O)c4c3C2=O)NC(=O)/C(C)=C\\C=C\\[C@H](C)[C@H](O)[C@@H](C)[C@@H](O)[C@@H](C)[C@H](OC(C)=O)[C@@H]1C.[Na+] [rifamycin SV]")
1.000
>>> numeric_value("CO[C@H]1/C=C/O[C@@]2(C)Oc3c(C)c(O)c4c(=O)c(c5oc6cc(N7CCN(CC(C)C)CC7)cc(O)c6nc-5c4c3C2=O)NC(=O)/C(C)=C\\C=C\\[C@H](C)[C@H](O)[C@@H](C)[C@@H](O)[C@@H](C)[C@H](OC(C)=O)[C@@H]1C [rifalazil]")
0.609
>>> numeric_value("CO[C@H]1/C=C/O[C@@]2(C)Oc3c(C)c(O)c4c(c3C2=O)C2=NC3(CCN(CC(C)C)CC3)NC2=C(NC(=O)/C(C)=C\\C=C\\[C@H](C)[C@H](O)[C@@H](C)[C@@H](O)[C@@H](C)[C@H](OC(C)=O)[C@@H]1C)C4=O [rifabutin]")
506006.298
